From: ChEMBL document CHEMBL4118286

Test: Neurotoxicity against human SH-SY5Y cells assessed as cell viability at 10 uM after 24 hrs by MTT assay relative to control
Assay type: toxicity, cell-based
Conditions: read-out: Activity

>  <molecule>
COC(=O)C1Cc2c([nH]c3ccccc23)C(C)N1C(=O)CCCN1CCN(CCCC(=O)N2C(C(=O)OC)Cc3c([nH]c4ccccc34)C2C)CC1 (configuration not stated)

>  <viability at 24 h, 10 µM>
90.8%

$$$$
>  <molecule>
COC(=O)C1Cc2c([nH]c3ccccc23)C(C)N1C(=O)CCN1CCN(CCC(=O)N2C(C(=O)OC)Cc3c([nH]c4ccccc34)C2C)CC1 (configuration not stated)

>  <viability at 24 h, 10 µM>
90.9%

$$$$

* * *

Assay: Neurotoxicity against human SH-SY5Y cells assessed as cell viability at 1 uM after 24 hrs by MTT assay relative to control
Assay type: toxicity, cell-based
Conditions: read-out: Activity
// values below are reported viability at 24 h, 1 µM
quantity_measured: viability at 24 h, 1 µM (%)

>  <compound>
COC(=O)C1Cc2c([nH]c3ccccc23)C(C)N1C(=O)CCCN1CCN(CCCC(=O)N2C(C(=O)OC)Cc3c([nH]c4ccccc34)C2C)CC1 (centres undefined)

>  <unit_of_measure>
%

>  <observed>
98.6

$$$$
>  <compound>
COC(=O)C1Cc2c([nH]c3ccccc23)C(C)N1C(=O)CCN(C)CCN(C)CCC(=O)N1C(C(=O)OC)Cc2c([nH]c3ccccc23)C1C (centres undefined)

>  <unit_of_measure>
%

>  <observed>
106

$$$$
>  <compound>
COC(=O)c1cc2c3ccccc3n(CCCN(C)CCN(C)CCCn3c4ccccc4c4cc(C(=O)OC)nc(-c5ccccc5)c43)c2c(-c2ccccc2)n1

>  <unit_of_measure>
%

>  <observed>
98.2

$$$$
>  <compound>
COC(=O)C1Cc2c([nH]c3ccccc23)C(C)N1C(=O)CCN1CCN(CCC(=O)N2C(C(=O)OC)Cc3c([nH]c4ccccc34)C2C)CC1 (centres undefined)

>  <unit_of_measure>
%

>  <observed>
103

$$$$

* * *

Target: Acetylcholinesterase (Electrophorus electricus)
Sequence (O42275 whole entry): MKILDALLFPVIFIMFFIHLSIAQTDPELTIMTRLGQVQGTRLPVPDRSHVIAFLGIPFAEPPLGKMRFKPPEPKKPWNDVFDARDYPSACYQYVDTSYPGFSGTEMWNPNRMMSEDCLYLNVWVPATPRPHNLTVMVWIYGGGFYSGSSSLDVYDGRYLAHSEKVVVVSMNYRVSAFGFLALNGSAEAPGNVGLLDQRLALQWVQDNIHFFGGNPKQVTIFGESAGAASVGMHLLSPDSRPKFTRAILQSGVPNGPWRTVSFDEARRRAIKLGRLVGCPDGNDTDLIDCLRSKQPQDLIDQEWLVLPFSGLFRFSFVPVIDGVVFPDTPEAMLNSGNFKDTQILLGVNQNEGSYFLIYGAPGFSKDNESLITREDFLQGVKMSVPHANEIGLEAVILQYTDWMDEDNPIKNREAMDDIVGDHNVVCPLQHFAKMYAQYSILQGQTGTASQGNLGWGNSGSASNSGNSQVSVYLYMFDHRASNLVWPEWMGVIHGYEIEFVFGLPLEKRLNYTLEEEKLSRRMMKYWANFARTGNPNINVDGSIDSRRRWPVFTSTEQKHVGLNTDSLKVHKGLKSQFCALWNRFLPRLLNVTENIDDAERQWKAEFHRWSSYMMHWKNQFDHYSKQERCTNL
Test: Inhibition of electric eel AChE using acetylthiocholine iodide as substrate preincubated for 2 mins followed by substrate addition and measured after 2 mins by Ellman's method
Conditions: read-out: IC50

>  <compound>
COC(=O)C1Cc2c([nH]c3ccccc23)CN1C(=O)CCN(C)CCN(C)CCC(=O)N1Cc2[nH]c3ccccc3c2CC1C(=O)OC (configuration not stated)

>  <target_entity>
Acetylcholinesterase (Electrophorus electricus)

>  <IC50>
25.4 µM

$$$$
>  <compound>
COC(=O)c1cc2c3ccccc3n(CCCCN3CCN(CCCCn4c5ccccc5c5cc(C(=O)OC)nc(C)c54)CC3)c2c(C)n1

>  <target_entity>
Acetylcholinesterase (Electrophorus electricus)

>  <IC50>
11.6 µM

$$$$
>  <compound>
COC(=O)C1Cc2c([nH]c3ccccc23)C(C)N1C(=O)CCCN1CCN(CCCC(=O)N2C(C(=O)OC)Cc3c([nH]c4ccccc34)C2C)CC1 (configuration not stated)

>  <target_entity>
Acetylcholinesterase (Electrophorus electricus)

>  <IC50>
44.2 µM

$$$$
>  <compound>
COC(=O)C1Cc2c([nH]c3ccccc23)C(c2ccccc2)N1C(=O)CN(C)CCN(C)CC(=O)N1C(C(=O)OC)Cc2c([nH]c3ccccc23)C1c1ccccc1 (configuration not stated)

>  <target_entity>
Acetylcholinesterase (Electrophorus electricus)

>  <IC50>
64 µM

$$$$
>  <compound>
COC(=O)c1cc2c3ccccc3n(CCCN(C)CCN(C)CCCn3c4ccccc4c4cc(C(=O)OC)nc(-c5ccccc5)c43)c2c(-c2ccccc2)n1

>  <target_entity>
Acetylcholinesterase (Electrophorus electricus)

>  <IC50>
147 µM

$$$$
>  <compound>
COC(=O)c1cc2c3ccccc3n(CCCN3CCN(CCCn4c5ccccc5c5cc(C(=O)OC)nc(C)c54)CC3)c2c(C)n1

>  <target_entity>
Acetylcholinesterase (Electrophorus electricus)

>  <IC50>
11.2 µM

$$$$
>  <compound>
COC(=O)C1Cc2c([nH]c3ccccc23)C(C)N1C(=O)CCN1CCN(CCC(=O)N2C(C(=O)OC)Cc3c([nH]c4ccccc34)C2C)CC1 (configuration not stated)

>  <target_entity>
Acetylcholinesterase (Electrophorus electricus)

>  <IC50>
19.9 µM

$$$$
